Tested on: A-427
Assay: relative viability (nuclei count vs DMSO), 5 days (fraction); higher = more cells survive
Details: first compound 0.08 µM
measurement-type: relative viability
Answer using only a numeral; do not append any unit.

compound: COc1nc(C)cnc1NS(=O)(=O)c1cccnc1-c1ccc(-c2nnco2)cc1 [Zibotentan] + CS(=O)(=O)CCNCc1ccc(-c2ccc3ncnc(Nc4ccc(OCc5cccc(F)c5)c(Cl)c4)c3c2)o1 [Lapatinib] (partner 2 µM)
measurement-type: relative viability
endpoint-result: 1.08

compound: O=c1cc(-c2cccc3c2Sc2ccccc2S3)oc(N2CCOCC2)c1 + O=C(c1cc(Cc2n[nH]c(=O)c3ccccc23)ccc1F)N1CCN(C(=O)C2CC2)CC1 [Olaparib] (partner 8 µM)
measurement-type: relative viability
endpoint-result: 0.7

Give A-427 relative viability for O=c1cc(-c2cccc3c2Sc2ccccc2S3)oc(N2CCOCC2)c1 + Nc1nc2[nH]cc(CCc3ccc(C(=O)N[C@@H](CCC(=O)O)C(=O)O)cc3)c2c(=O)[nH]1 [Pemetrexed] (partner 0.2 µM)
0.808

Missing value: relative viability, A-427, entry O=c1cc(-c2cccc3c2Sc2ccccc2S3)oc(N2CCOCC2)c1 + C[C@@H](Oc1cc(-c2cnn(C3CCNCC3)c2)cnc1N)c1c(Cl)ccc(F)c1Cl [Crizotinib] (partner 1 µM) . Fill in?
0.988

Give recorded relative viability with A-427 for the following compound: O=c1cc(-c2cccc3c2Sc2ccccc2S3)oc(N2CCOCC2)c1 + COc1cccc2cc(-c3nc([C@H]4CC[C@H](C(=O)O)CC4)n4ncnc(N)c34)[nH]c12 [OSI-027] (partner 0.5 µM)
0.48

---

Test system: PC-14
Assay: relative viability (nuclei count vs DMSO), 5 days (fraction); higher = more cells survive
Settings: first compound 2.53 µM
Kindly apply the following: condition met if relative viability is less than 0.2, condition not met in every other case.

compound: COc1nc(C)cnc1NS(=O)(=O)c1cccnc1-c1ccc(-c2nnco2)cc1 [Zibotentan] + CC1(C)CCC(c2ccc(Cl)cc2)=C(CN2CCN(c3ccc(C(=O)NS(=O)(=O)c4ccc(N[C@H](CCN5CCOCC5)CSc5ccccc5)c(S(=O)(=O)C(F)(F)F)c4)cc3)CC2)C1 [Navitoclax] (partner 0.5 µM)
assigned-class: condition not met

Say whether its relative viability is strictly beneath 0.2. Entry: O=c1cc(-c2cccc3c2Sc2ccccc2S3)oc(N2CCOCC2)c1 + CS(=O)(=O)CCNCc1ccc(-c2ccc3ncnc(Nc4ccc(OCc5cccc(F)c5)c(Cl)c4)c3c2)o1 [Lapatinib] (partner 2 µM)
condition not met

Lab note: confirm whether the reported relative viability for this compound is below 0.2, equality not counting. compound: O=c1cc(-c2cccc3c2Sc2ccccc2S3)oc(N2CCOCC2)c1 + CC1(C)CCC(c2ccc(Cl)cc2)=C(CN2CCN(c3ccc(C(=O)NS(=O)(=O)c4ccc(N[C@H](CCN5CCOCC5)CSc5ccccc5)c(S(=O)(=O)C(F)(F)F)c4)cc3)CC2)C1 [Navitoclax] (partner 0.5 µM)
condition not met

Threshold test, relative viability < 0.2: O=c1cc(-c2cccc3c2Sc2ccccc2S3)oc(N2CCOCC2)c1 + Cc1nc(Nc2ncc(C(=O)Nc3c(C)cccc3Cl)s2)cc(N2CCN(CCO)CC2)n1 [Dasatinib] (partner 0.075 µM)
condition met

---

Tested on: CAL-12T
Assay: relative viability (nuclei count vs DMSO), 5 days (fraction); higher = more cells survive
Conditions: first compound 0.03162 µM
Parameter relative viability: see the listing below.
Just the number, please, no unit attached.

molecule: CCN(CC)CCCCNc1ncc2cc(-c3cc(OC)cc(OC)c3)c(NC(=O)NC(C)(C)C)nc2n1 + O=C(c1cc(Cc2n[nH]c(=O)c3ccccc23)ccc1F)N1CCN(C(=O)C2CC2)CC1 [Olaparib] (partner 8 µM)
measurement-type: relative viability
endpoint-result: 0.78

molecule: CCN(CC)CCCCNc1ncc2cc(-c3cc(OC)cc(OC)c3)c(NC(=O)NC(C)(C)C)nc2n1 + Cc1cc(Nc2cc(N3CCN(C)CC3)nc(Sc3ccc(NC(=O)C4CC4)cc3)n2)n[nH]1 [Tozasertib] (partner 0.1 µM)
measurement-type: relative viability
endpoint-result: 0.287

molecule: O=c1cc(N2CCOCC2)oc2c(-c3cccc4c3sc3ccccc34)cccc12 + C[C@]1(O)C[C@@H](c2nc(-c3ccc4ccc(-c5ccccc5)nc4c3)c3c(N)nccn32)C1 [Linsitinib] (partner 1 µM)
measurement-type: relative viability
endpoint-result: 0.809

Please look at the following molecule next.
What does the record list as relative viability for CCN(CC)CCCCNc1ncc2cc(-c3cc(OC)cc(OC)c3)c(NC(=O)NC(C)(C)C)nc2n1 + COc1cccc2cc(-c3nc([C@H]4CC[C@H](C(=O)O)CC4)n4ncnc(N)c34)[nH]c12 [OSI-027] (partner 0.5 µM) ?
0.736
